Entry source: paper PMC10829512

# tested system: Gdx-Clo (Clostridiales bacterium oral taxon 876)
# Sequence (U2EQ00 1-105): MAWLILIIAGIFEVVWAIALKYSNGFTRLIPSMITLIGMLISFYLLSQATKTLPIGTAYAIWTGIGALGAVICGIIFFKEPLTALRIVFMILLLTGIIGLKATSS
# test name: Isothermal titration calorimetry (ITC)
# Format: binding, Clostridales oral taxon 876
# settings: ITC, pH 8.5, 25°C, mean ± SEM
measured attribute: pKd
In simple prose, pKd is minus the logarithm base ten of a concentration in moles per litre.

{"columns": ["compound", "pKd"],
 "data": [
  ["N=C(N)NC(N)=O [Guanylurea, guanylurea]", 3.85]
]}

Consider now this further compound.
Query: Field request: pKd | item: N=C(N)N [Gdm^+, guanidinium]
Result: 3.39

###

# tested system: Gdx-Clo A70C/S104C
# test name: Tryptophan fluorescence binding to crosslinked variant
# settings: A70C/S104C under oxidizing conditions, read-out: Kd, fit to a single-site binding model
measured attribute: Kd (µM)
Number only, in µM; omit the unit.

Query: Field request: Kd | item: N=C(N)N [Gdm^+, guanidinium]
Result: 560

###

Measured pKd, listed per entry.
# tested system: Gdx-Clo (Clostridiales bacterium oral taxon 876)
# test name: Tryptophan fluorescence substrate binding
# Design: species or system Clostridales oral taxon 876
# settings: pH 8.0, tryptophan fluorescence, mean ± SEM; read-out: Kd (apparent) for substrate binding to Gdx-Clo
In simple prose, pKd is minus the logarithm base ten of a concentration in moles per litre.

{"columns": ["smiles string", "pKd"],
 "data": [
  ["N=C(N)N", 3.18]
]}

Query: Field request: pKd | item: "N=C(N)NC(N)=O"
Result: 4.23

###

# tested system: Gdx-Clo (Clostridiales bacterium oral taxon 876, UniProt U2EQ00)
# Sequence (U2EQ00 1-105): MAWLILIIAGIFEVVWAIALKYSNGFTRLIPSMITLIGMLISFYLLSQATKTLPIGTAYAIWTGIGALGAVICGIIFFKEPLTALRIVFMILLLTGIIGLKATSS
# test name: Tryptophan fluorescence substrate binding
# Set-up: species or system Clostridales oral taxon 876
# settings: pH 9.0, tryptophan fluorescence, mean ± SEM; read-out: Kd (apparent) for substrate binding to Gdx-Clo
# Method: Fluorescence emission spectra (λex = 280 nm, […]) were collected for 1 µM purified protein in assay buffer containing 200 mM NaCl, 10 mM HEPES, 10 mM bicine, 10 mM NaPO4, and 5 mM DM, with pH adjusted from 6.5 to 9.0. Substrate was added from a stock solution prepared in assay buffer. For Gdm^+ titrations, the change in fluorescence, F, as a function of substrate fit to a single site binding isotherm, ∆F=(Fmax[S]/Kd+[S]). (3) […]
measured attribute: Kd (µM)
Number only, in µM; omit the unit.

Query: Requested read-out Kd, target or system Gdx-Clo (Clostridiales bacterium oral taxon 876, UniProt U2EQ00), entry "N=C(N)NC(N)=O"
Result: 63

###

# tested system: Gdx-Clo (Clostridiales bacterium oral taxon 876, UniProt U2EQ00)
# test name: Tryptophan fluorescence substrate binding
# Design: species or system Clostridales oral taxon 876
# settings: pH 8.5, tryptophan fluorescence, mean ± SEM; read-out: Kd (apparent) for substrate binding to Gdx-Clo
measured attribute: pKd
In simple prose, pKd is minus the logarithm base ten of a concentration in moles per litre.

{"columns": ["smiles string", "pKd"],
 "data": [
  ["N=C(N)NC(N)=O", 4.04]
]}

Consider now this further molecule.
Query: Requested read-out pKd, target or system Gdx-Clo (Clostridiales bacterium oral taxon 876, UniProt U2EQ00), entry "N=C(N)N"
Result: 3.32

###

# tested system: Gdx-pPro (Citrobacter freundii, UniProt O69279)
# Sequence (O69279 2-105): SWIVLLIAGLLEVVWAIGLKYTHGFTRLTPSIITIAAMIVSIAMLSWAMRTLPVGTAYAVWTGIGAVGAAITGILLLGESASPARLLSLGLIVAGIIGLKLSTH
# settings: 2 mM substrate
measured attribute: Transport currents in substrate screen

{"columns": ["molecule", "observed result"],
 "data": [
  ["CCCCNC(=N)NC(=N)N [buformin]", "transported"],
  ["CNC(=N)NC(=N)N [methylbiguanide]", "transported"]
]}

###

# tested system: Gdx-Clo (Clostridiales bacterium oral taxon 876, UniProt U2EQ00)
# test name: Tryptophan fluorescence substrate binding
# Parameters: species or system Clostridales oral taxon 876
# settings: pH-independent Kd, glutamates assumed to have equal Ka; read-out: Kd from fit of apparent Kd versus pH to Eq. 5
Measured Kd, listed per entry.
Number only, in µM; omit the unit.

Query: Requested read-out Kd, target or system Gdx-Clo (Clostridiales bacterium oral taxon 876, UniProt U2EQ00), entry N=C(N)N [Gdm^+, guanidinium]
Result: 600

Query: Requested read-out Kd, target or system Gdx-Clo (Clostridiales bacterium oral taxon 876, UniProt U2EQ00), entry N=C(N)NC(N)=O [Guanylurea, guanylurea]
Result: 70

###

# tested system: UniProt:U2EQ00
# test name: Tryptophan fluorescence substrate binding
# Set-up: species or system Clostridales oral taxon 876
# settings: pH 7.0, tryptophan fluorescence, mean ± SEM; read-out: Kd (apparent) for substrate binding to Gdx-Clo
measured attribute: pKd
In simple prose, pKd is minus the logarithm base ten of a concentration in moles per litre.

{"columns": ["molecule", "pKd"],
 "data": [
  ["N=C(N)NC(N)=O [Guanylurea, guanylurea]", 3.72]
]}

Query: Field request: pKd | item: N=C(N)N [Gdm^+, guanidinium]
Result: 2.82

###

# tested system: Gdx-Eco (Escherichia coli)
# Sequence (P69937 whole entry): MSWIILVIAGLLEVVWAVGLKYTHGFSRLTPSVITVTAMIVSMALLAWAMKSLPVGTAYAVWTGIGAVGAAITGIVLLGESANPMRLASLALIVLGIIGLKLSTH
# test name: SSM electrophysiology of Gdx-Eco proteoliposomes
# Assay type: biochemical
# settings: 2 mM substrate

{"columns": ["compound", "tested system", "Transport currents in substrate screen"],
 "data": [
  ["CNC(=N)NC(=N)N [methylbiguanide]", "Gdx-Eco (Escherichia coli)", "transported"],
  ["CCCCNC(=N)NC(=N)N [buformin]", "Gdx-Eco (Escherichia coli)", "transported"]
]}
